Where these numbers come from: the supplement of paper PMC10065799

Listed next: entries and their corresponding phosphorylation enrichment.
# System: c-Abl (mouse);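 note: 11-residue human phosphosite peptides and single-mutation variants displayed on the E. coli surface, counted by deep sequencing, each peptide's frequency after selection divided by its frequency in the unselected input library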;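 note: frequency after pTyr selection over input frequency; kinase dosed for 20-30% of maximal phosphorylation in three min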
# experimentDescription: phosphorylation enrichment, bacterial display (enrichment ratio); higher = better substrate or ligand; peptides without Tyr show the background
Enter a number only.

Below: 10 sequences and their reported phosphorylation enrichment.
GLDGSYLPRDS [SH2D1A_Y29_L31P]    0.513
GVRLFYRVRES [RB1_Y454_M457R_YF]    0.976
ARAFIYAIIPA [ACKtide_2014]    2.27
CTTIHYNFMGN [TP53_Y234_C238G_YF]    0.699
QLCVNYPGGYT [PROS1_Y259]    0.845
YSTDYYRVGGH [NTRK2_Y707]    1.03
ALMGLYHGQVL [HADHA_Y343]    0.679
QEGPEYWDEET [HLA-A_Y83_Q86E]    1.32
KFANSYRMEPL [TCTE3_Y87]    0.534
ELTTCYRKKCC [CCBE1_Y70]    0.559

Ask | Dear colleague, please send me the reported phosphorylation enrichment for FETVKYFNNER [ABCB7_Y345_YF] when you can.
Reply | 0.567

Ask | Dear colleague, please send me the reported phosphorylation enrichment for FFRCHYPLTTL [TNS4_Y644_R642C] when you can.
Reply | 0.595

Ask | Dear colleague, please send me the reported phosphorylation enrichment for GGYNNYGYGND [HNRNPH3_Y159] when you can.
Reply | 1.24

Ask | Dear colleague, please send me the reported phosphorylation enrichment for KSVEEYANCHL [TF_Y593_P589S] when you can.
Reply | 0.628
